tested on: DC-3F cells; test: Single drug effect, SRB assay, DC-3F; assay type: cell-based, Chinese hamster; settings: Cricetulus griseus, DC3F, Table 10, DC-3F, 72 h, read-out: Dm
Recorded metric: IC50 (nM)
Give bare numbers, in nM.

QUERY: Look up and report IC50, with DC-3F cells as system, for CO[C@@]12[C@H](COC(N)=O)C3=C(C(=O)C(C)=C(N)C3=O)N1C[C@@H]1N[C@@H]12
RESULT: 59

====

system: Human promyelocytic leukemic cell (HL-60); test: Cytotoxicity, HL-60; format: cell-based; details: Homo sapiens, HL-60, Table 2, HL60; read-out: concentration required to inhibit cell growth by 50% (IC50)
Field: IC50. Provide a value for each of the molecules that follow.

QUERY: Return the recorded IC50 value; entry: COc1cc(NS(C)(=O)=O)ccc1Nc1c2ccccc2nc2ccccc12
RESULT: 0.039 µM

Okay, now this molecule:
QUERY: Using known records, supply IC50 for CO[C@@]12[C@H](COC(N)=O)C3=C(C(=O)C(C)=C(N)C3=O)N1C[C@@H]1N[C@@H]12
RESULT: 0.048 µM

====

system: Human acute lymphoblastic T cells (CCRF-CEM); experiment: Cytotoxicity, CCRF-CEM; type: cell-based; details: Homo sapiens, CCRF-CEM, Table 1, CCRF-CEM; read-out: IC50
Please respond with reported pIC50 for every item in the list.
Answers are plain numbers, as −log10 of the molar value.

QUERY: Indicate the recorded pIC50 value for this compound: CO[C@@]12[C@H](COC(N)=O)C3=C(C(=O)C(C)=C(N)C3=O)N1C[C@@H]1N[C@@H]12 [mitomycin C]
RESULT: 6.85

Further cases:
QUERY: Name the recorded pIC50 of the item COc1cc(NS(C)(=O)=O)ccc1Nc1c2ccccc2nc2ccccc12 [m-AMSA] in your answer.
RESULT: 6.70

====

Test system: Human breast adenocarcinoma cells (SK-Br-3)
Assay: Cytotoxicity, SK-Br-3
Format: cell-based
Settings: Homo sapiens, SK-BR-3, Table 2, SK-Br-3 (Breast); read-out: concentration required to inhibit cell growth by 50% (IC50)
From the text: | cell growth by 50% (IC50) in μM.
Recorded metric: IC50 (nM)
Numbers only, in nM.

QUERY: Supply measured IC50 of COc1cc(NS(C)(=O)=O)ccc1Nc1c2ccccc2nc2ccccc12 in your reply.
RESULT: 551

Alright, here's another compound for you.
QUERY: Supply reported IC50 belonging to this compound: CO[C@@]12[C@H](COC(N)=O)C3=C(C(=O)C(C)=C(N)C3=O)N1C[C@@H]1N[C@@H]12
RESULT: 993

====

tested on: HL-60 cells; assay: Growth inhibition, XTT assay, HL-60; format: cell-based; conditions: Homo sapiens; Table 8, HL-60, XTT, growth inhibition; read-out: IC50
Recorded metric: IC50 (µM)
One number for each entry, in µM.

QUERY: Specify the recorded IC50 for CO[C@@]12[C@H](COC(N)=O)C3=C(C(=O)C(C)=C(N)C3=O)N1C[C@@H]1N[C@@H]12 [mitomycin C] , system: HL-60 cells.
RESULT: 0.08

====

test system: 833K solid tumor cells; test: Growth inhibition, SRB assay, 833K; assay type: cell-based; conditions: Homo sapiens, Table 8, 833K
Recorded metric: IC50 (nM)
Numbers only, in nM.

QUERY: Consider the molecule CO[C@@]12[C@H](COC(N)=O)C3=C(C(=O)C(C)=C(N)C3=O)N1C[C@@H]1N[C@@H]12 [mitomycin C] and give its recorded IC50.
RESULT: 300

====

system: CCRF-CEM/VBL cells; assay: Cytotoxicity, CCRF-CEM resistant to vinblastine; format: cell-based, human; conditions: Homo sapiens, CCRF-CEM, Table 3, CCRF-CEM/VBL; read-out: Cytotoxic Concentration IC50
Recorded metric: IC50 (nM)
One number for each entry, in nM.

QUERY: Return IC50 (reported value) for this compound: COc1cc(NS(C)(=O)=O)ccc1Nc1c2ccccc2nc2ccccc12
RESULT: 565

New cases:
QUERY: Please report the measured IC50 for CO[C@@]12[C@H](COC(N)=O)C3=C(C(=O)C(C)=C(N)C3=O)N1C[C@@H]1N[C@@H]12
RESULT: 566
